assay procedure: Modulation of P-gp (unknown origin) transfected in human MDA435/LCC6MDR cells assessed as paclitaxel IC50 for cell growth inhibition at 1 uM after 5 days by MTS assay
Examples of compounds with documented pIC50 follow.
Reminder that pIC50 is minus the log10 of a molar concentration.

                                   compound  endpoint_label  observed_result
0  COc1ccc(C2=C(c3ccc(OC)c(OC)c3)C(=O)N(C(=O)N3CCN(CC(=O)c4ccc(S(C)(=O)=O)cc4)CC3)C2=O)cc1OC           pIC50             6.87
1  COc1ccc(C2=C(c3ccc(OC)c(OC)c3)C(=O)N(C(=O)N3CCN(CC(=O)c4ccc(OCc5ccccc5)c(OC)c4)CC3)C2=O)cc1OC           pIC50             7.59
2  CCCCC1OC(=O)c2cc(NC(=O)N3C(=O)C(c4ccc(OC)c(OC)c4)=C(c4ccc(OC)c(OC)c4)C3=O)ccc21 (centres undefined)           pIC50             7.24

Kindly review the next compound as well.
Lookup: For the compound shown here, COc1ccc(C2=C(c3ccc(OC)c(OC)c3)C(=O)N(C(=O)Nc3ccc4c(c3)C(=O)OC4)C2=O)cc1OC , give the reported pIC50.
Found: 6.90
